System Tested: PTP SIGMA (Homo sapiens)
Construct: made in house; host or cells: E. coli BL-21 (pGEX 6P-1)
Sequence (Q13332 1320-1660 limits assumed): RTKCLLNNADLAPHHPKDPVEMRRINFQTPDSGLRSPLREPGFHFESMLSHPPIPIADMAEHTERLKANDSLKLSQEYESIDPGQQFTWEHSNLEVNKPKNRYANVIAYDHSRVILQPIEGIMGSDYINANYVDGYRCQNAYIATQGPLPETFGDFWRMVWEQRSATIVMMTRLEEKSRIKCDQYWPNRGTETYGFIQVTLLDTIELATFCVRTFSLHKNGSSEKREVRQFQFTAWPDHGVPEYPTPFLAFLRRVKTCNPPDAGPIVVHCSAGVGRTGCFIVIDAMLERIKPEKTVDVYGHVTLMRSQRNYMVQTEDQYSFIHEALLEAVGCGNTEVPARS
Assay Method Text: PTP IC50 assay, pNPP or FDP as substrate
Assay type: biochemical
Condition Notes: pNPP or FDP as substrate, 25° C.; read-out: PTP IC50 Sigma
pIC50: −log10 of the molar value.

Molecular String: O=C(O)Cc1ccc(CC(=O)Nc2cccc(S(=O)(=O)C(F)(F)F)c2)cc1
Comparison Sign: =
pIC50: 4.22
--
Molecular String: CCNc1ccc(S(=O)(=O)C(F)(F)F)cc1NC(=O)Cc1ccc(S(C)(=O)=O)cc1
Comparison Sign: <
pIC50: 4.15
--
Molecular String: O=[N+]([O-])c1cc(S(=O)(=O)C(F)(F)F)ccc1SSc1ccc(S(=O)(=O)C(F)(F)F)cc1[N+](=O)[O-]
Comparison Sign: =
pIC50: 4.56
--
Molecular String: CCOC(=O)COc1ccc(S(=O)(=O)c2ccc(Oc3ccc(S(=O)(=O)C(F)(F)F)cc3)cc2)cc1
Comparison Sign: =
pIC50: 4.03
--
Molecular String: O=S(=O)(Nc1ccc(OCCCCOc2ccc(NS(=O)(=O)C(F)(F)F)cc2)cc1)C(F)(F)F
Comparison Sign: =
pIC50: 4.42
--
Molecular String: O=S(=O)(Nc1ccc(Oc2cccc(Oc3ccc(NS(=O)(=O)C(F)(F)F)cc3)c2)cc1)C(F)(F)F
Comparison Sign: =
pIC50: 5.12
--
Molecular String: O=C(Cc1ccccc1CC(=O)Nc1cccc(S(=O)(=O)C(F)(F)F)c1)Nc1cccc(S(=O)(=O)C(F)(F)F)c1
Comparison Sign: =
pIC50: 4.64

====

System Tested: PTP 1B (Homo sapiens)
Construct: made in house; host or cells: Sf-9 insect cells (pFastBac-G2T)
Sequence (P18031 whole entry): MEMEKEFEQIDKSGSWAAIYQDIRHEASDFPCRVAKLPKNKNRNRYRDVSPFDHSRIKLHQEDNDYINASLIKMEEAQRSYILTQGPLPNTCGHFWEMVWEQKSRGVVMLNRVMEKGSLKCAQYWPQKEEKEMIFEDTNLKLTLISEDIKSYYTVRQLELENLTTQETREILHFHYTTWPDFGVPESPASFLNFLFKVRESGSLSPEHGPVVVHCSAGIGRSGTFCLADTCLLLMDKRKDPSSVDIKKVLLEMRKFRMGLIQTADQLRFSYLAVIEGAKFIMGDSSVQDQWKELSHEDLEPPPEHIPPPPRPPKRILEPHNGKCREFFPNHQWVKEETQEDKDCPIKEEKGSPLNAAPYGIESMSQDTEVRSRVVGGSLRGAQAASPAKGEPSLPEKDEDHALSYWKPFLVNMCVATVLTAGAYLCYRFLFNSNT
Assay Method Text: PTP IC50 assay, fluorescent substrate DiFMUP
Type: biochemical
Condition Notes: DiFMUP as substrate, 25° C.; read-out: PTP IC50 1B
pIC50: −log10 of the molar value.

Compound: CCOC(=O)CNC(=O)C(c1ccc(S(=O)(=O)C(F)(F)F)cc1)N(C(C)=O)C1CCCCC1 (stereo not shown) [Example 51]
pIC50: < 4.00

Compound: Cc1cc2cc(NS(=O)(=O)C(F)(F)F)ccc2n1CC(=O)O [Example 79]
pIC50: < 4.00

Compound: O=C(O)c1cccc(NC(=O)c2cc3cc(NS(=O)(=O)C(F)(F)F)ccc3[nH]2)c1 [Example 83]
pIC50: < 4.70

Compound: O=C(O)c1ccc(NC(=O)c2cc3cc(NS(=O)(=O)C(F)(F)F)ccc3[nH]2)cc1 [Example 84]
pIC50: < 4.70

====

System Tested: PTP MU (Homo sapiens)
Construct: made in house; host or cells: E. coli BL-21 (pGEX 6P-1)
Sequence (P28827 831-1186 limits assumed): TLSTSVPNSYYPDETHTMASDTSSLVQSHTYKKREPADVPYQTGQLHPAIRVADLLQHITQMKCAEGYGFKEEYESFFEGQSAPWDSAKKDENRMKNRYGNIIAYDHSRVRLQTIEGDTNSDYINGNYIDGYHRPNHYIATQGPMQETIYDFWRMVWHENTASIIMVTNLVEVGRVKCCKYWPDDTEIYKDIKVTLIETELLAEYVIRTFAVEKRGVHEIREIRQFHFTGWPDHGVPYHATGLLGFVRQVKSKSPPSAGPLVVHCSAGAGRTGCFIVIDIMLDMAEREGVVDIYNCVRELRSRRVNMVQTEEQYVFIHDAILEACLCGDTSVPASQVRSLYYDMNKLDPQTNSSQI
Assay Method Text: PTP IC50 assay, pNPP or FDP as substrate
Format: biochemical
Property Label: IC50 (µM)

Molecular String: NC(=O)c1cc(Oc2ccc(S(=O)(=O)C(F)(F)F)cc2[N+](=O)[O-])cc(Oc2ccc(S(=O)(=O)C(F)(F)F)cc2[N+](=O)[O-])c1
System Tested: PTP MU (Homo sapiens)
Property Label: IC50
Measured Number: 28.4

====

System Tested: PTP MEG2 (Homo sapiens)
Construct: made in house; host or cells: E. coli BL-21 (pGEX 6P-1)
Sequence (P43378 262-593 limits assumed): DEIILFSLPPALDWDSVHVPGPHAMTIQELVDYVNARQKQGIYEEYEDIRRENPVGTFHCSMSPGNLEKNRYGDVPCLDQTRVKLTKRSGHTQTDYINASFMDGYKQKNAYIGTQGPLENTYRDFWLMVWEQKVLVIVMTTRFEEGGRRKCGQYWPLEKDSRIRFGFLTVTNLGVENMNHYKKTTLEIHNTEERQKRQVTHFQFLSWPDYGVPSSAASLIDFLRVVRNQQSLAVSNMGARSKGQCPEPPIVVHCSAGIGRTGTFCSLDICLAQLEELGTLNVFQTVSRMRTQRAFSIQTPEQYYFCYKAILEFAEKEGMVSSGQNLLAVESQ
Assay Method Text: PTP IC50 assay, pNPP or FDP as substrate
Assay type: biochemical
Condition Notes: pNPP or FDP as substrate, 25° C.; read-out: PTP IC50 MEG2
Listed next: entries and their corresponding IC50.
Property Label: IC50 (µM)

Compound: CCOC(=O)COc1ccc(S(=O)(=O)c2ccc(Oc3ccc(S(=O)(=O)C(F)(F)F)cc3[N+](=O)[O-])cc2)cc1
System Tested: PTP MEG2 (Homo sapiens)
Comparison Sign: =
Measured Number: 88.5
--
Compound: CN(C)CC(COc1ccc(S(=O)(=O)C(F)(F)F)cc1[N+](=O)[O-])Oc1ccc(S(=O)(=O)C(F)(F)F)cc1[N+](=O)[O-] (stereo not drawn)
System Tested: PTP MEG2 (Homo sapiens)
Comparison Sign: >
Measured Number: 100
--
Compound: O=S(=O)(Nc1ccc(-c2nnc(-c3ccc(NS(=O)(=O)C(F)(F)F)cc3)o2)cc1)C(F)(F)F
System Tested: PTP MEG2 (Homo sapiens)
Comparison Sign: =
Measured Number: 12.8
--
Compound: O=C(c1ccccc1)N(Cc1ccc(S(=O)(=O)C(F)(F)F)cc1)Cc1ccc(S(=O)(=O)C(F)(F)F)cc1
System Tested: PTP MEG2 (Homo sapiens)
Comparison Sign: =
Measured Number: 85.9
--
Compound: O=S(=O)(Nc1ccc(Oc2ccc(Oc3ccc(NS(=O)(=O)C(F)(F)F)cc3)cc2)cc1)C(F)(F)F
System Tested: PTP MEG2 (Homo sapiens)
Comparison Sign: =
Measured Number: 39.4
--
Compound: COC(=O)Cc1cc(Oc2ccc(S(=O)(=O)C(F)(F)F)cc2[N+](=O)[O-])cc(Oc2ccc(S(=O)(=O)C(F)(F)F)cc2[N+](=O)[O-])c1
System Tested: PTP MEG2 (Homo sapiens)
Comparison Sign: >
Measured Number: 100

====

System Tested: PTP SHP2 (Homo sapiens)
Construct: The catalytic domain was amplified using the following oligonucleotides; made in house; host or cells: Sf-9 insect cells (pFastBac-G2T)
Sequence (Q06124 247-517 limits assumed): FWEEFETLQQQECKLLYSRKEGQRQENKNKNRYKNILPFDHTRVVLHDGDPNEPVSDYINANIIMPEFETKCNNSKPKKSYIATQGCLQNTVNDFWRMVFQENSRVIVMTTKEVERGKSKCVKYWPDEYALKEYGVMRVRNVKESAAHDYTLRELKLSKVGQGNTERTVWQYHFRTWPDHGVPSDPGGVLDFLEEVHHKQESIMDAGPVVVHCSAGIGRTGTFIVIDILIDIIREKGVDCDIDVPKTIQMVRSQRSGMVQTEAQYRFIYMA
Assay Method Text: PTP IC50 assay, pNPP or FDP as substrate
Format: biochemical
Condition Notes: PTP IC50 SHP2, pNPP or FDP as substrate, 25° C.

Molecular String: NC(=O)c1cc(Oc2ccc(S(=O)(=O)C(F)(F)F)cc2[N+](=O)[O-])cc(Oc2ccc(S(=O)(=O)C(F)(F)F)cc2[N+](=O)[O-])c1
IC50 / µM: 52.8

====

System Tested: PTP MEG2 (Homo sapiens)
Construct: made in house; host or cells: E. coli BL-21 (pGEX 6P-1)
Assay Method Text: PTP IC50 assay, pNPP or FDP as substrate
Format: biochemical
Condition Notes: pNPP or FDP as substrate, 25° C.; read-out: PTP IC50 MEG2
pIC50: −log10 of the molar value.
Listed next: entries and their corresponding pIC50.
Property Label: pIC50

Molecular String: COC(=O)c1ccc(OCCOc2ccc(S(=O)(=O)C(F)(F)F)cc2[N+](=O)[O-])cc1
Comparison Sign: <
Measured Number: 4.00

Molecular String: O=C(O)c1ccc(Oc2cccc(Oc3ccc(S(=O)(=O)C(F)(F)F)cc3[N+](=O)[O-])c2)cc1
Comparison Sign: =
Measured Number: 4.68

Molecular String: O=C(O)Cc1ccc(CC(=O)Nc2cccc(S(=O)(=O)C(F)(F)F)c2)cc1
Comparison Sign: =
Measured Number: 4.17

Molecular String: O=[N+]([O-])c1cc(S(=O)(=O)C(F)(F)F)ccc1SSc1ccc(S(=O)(=O)C(F)(F)F)cc1[N+](=O)[O-]
Comparison Sign: <
Measured Number: 4.00

Molecular String: O=S(=O)(Nc1ccc(OCCCOc2ccc(NS(=O)(=O)C(F)(F)F)cc2)cc1)C(F)(F)F
Comparison Sign: <
Measured Number: 4.00

Molecular String: CCNc1ccc(S(=O)(=O)C(F)(F)F)cc1NC(=O)Cc1ccc(S(C)(=O)=O)cc1
Comparison Sign: =
Measured Number: 4.28

Molecular String: O=C(Cc1cccc(CC(=O)Nc2cccc(S(=O)(=O)C(F)(F)F)c2)c1)Nc1cccc(S(=O)(=O)C(F)(F)F)c1
Comparison Sign: =
Measured Number: 4.31

Molecular String: O=C(O)Cc1cccc(CC(=O)Nc2cccc(S(=O)(=O)C(F)(F)F)c2)c1
Comparison Sign: =
Measured Number: 4.48

====

System Tested: PTP SHP2 (Homo sapiens)
Construct: The catalytic domain was amplified using the following oligonucleotides; made in house; host or cells: Sf-9 insect cells (pFastBac-G2T)
Assay Method Text: PTP IC50 assay, pNPP or FDP as substrate
Type: biochemical
Condition Notes: pNPP or FDP as substrate, 25° C.; read-out: PTP IC50 SHP2
Listed next: entries and their corresponding IC50.
Property Label: IC50 (µM)

Compound: CCNc1ccc(S(=O)(=O)C(F)(F)F)cc1NC(=O)Cc1ccc(S(C)(=O)=O)cc1
Comparison Sign: >
Measured Number: 100

Compound: O=[N+]([O-])c1cc(S(=O)(=O)C(F)(F)F)ccc1OC1CCC(Oc2ccc(S(=O)(=O)C(F)(F)F)cc2[N+](=O)[O-])C1 (mixture of isomers)
Comparison Sign: =
Measured Number: 79.8

Compound: COC(=O)c1cc(Oc2ccc(S(=O)(=O)C(F)(F)F)cc2)cc(Oc2ccc(S(=O)(=O)C(F)(F)F)cc2)c1
Comparison Sign: >
Measured Number: 100

Compound: O=[N+]([O-])c1cc(S(=O)(=O)C(F)(F)F)ccc1Oc1cc(CN2CCOCC2)c(Oc2ccc(S(=O)(=O)C(F)(F)F)cc2[N+](=O)[O-])cc1CN1CCOCC1
Comparison Sign: =
Measured Number: 27.6

Compound: O=S(=O)(Nc1ccc(OCCCCOc2ccc(NS(=O)(=O)C(F)(F)F)cc2)cc1)C(F)(F)F
Comparison Sign: =
Measured Number: 17.1

Compound: Cc1cc(NS(=O)(=O)C(F)(F)F)ccc1CCc1ccc(NS(=O)(=O)C(F)(F)F)cc1C
Comparison Sign: =
Measured Number: 17
